# GI50 per entry
# Test system: OVCAR-5
# METHOD_DESCRIPTION: NCI tumour cell line growth inhibition, 48 h
The source made the active and inactive calls. Cut-off read from the data, not from the text of the source: active = GI50 up to about 1.1 µM and inactive = higher.

Some compounds with known GI50 results, for comparison:
• CCCCCCCCCCCCCCCCOCC(Cl)COP(=O)(O)OP(=O)(O)OCC1OC(n2cnc3c(N)ncnc32)C(O)C1O (stereo not given) = 50.7 µM (inactive)
• C=C1C(=O)OC2C1C(OC(=O)/C(C)=C/C)CC(O)(CCl)C1C(O)C=C(C)C21O (stereo not given) = 16.7 µM (inactive)
• CC(=O)N1N=C(c2cc(C)ccc2O)CC1c1cccc(Cl)c1 (stereo not given) = 30.1 µM (inactive)

Record OCCN1CCN(CCO)Cc2ccccc2OCCOc2ccccc2C1 , field GI50: > 100 µM (inactive)

# GI50 (compound: C=CCCC1(O)C(O)C(CO)O[C@H](O[C@@]2(CO)OC(CO)C(O)C2O)C1O (stereo not given in full) ) is > 100 µM (inactive)

Measured GI50 of O=C(CCc1cccc(O)c1)NCCCNC(=O)CCc1cccc(O)c1 : > 100 µM (inactive)

Notebook: C=C1c2nc3ccccc3n2C=C(c2ccc(OC)cc2)N1c1ccccc1 , GI50 read as > 78.5 µM (inactive)

For CCOC(=O)C1S/C(=N\c2ccc(Cl)cc2Cl)N=C1C (stereo not given) the compound record lists GI50 as > 100 µM (inactive)

Quick note, GI50 for N#CC[C@@H](O)COc1ccccc1 landed at > 100 µM (inactive)

According to the records, this compound COc1cccc2c1C(=O)c1c(O)c3c(c(O)c1C2=O)CC(O)(C(C)=O)CC3OC1CC([N+](C)(C)C)C(O)C(C)O1 (stereo not given) displays GI50 of > 100 µM (inactive)
